// IC50 lookup, one value per entry
Tested on: Plasmodium falciparum strain NF54
assay_name: Growth inhibition of Plasmodium falciparum NF54 (chloroquine-sensitive) in vitro, [G-3H]-hypoxanthin incorporation
Type: cell-based
condition_notes: chloroquine-sensitive strain NF54, 72 h, read-out: IC50 for P. falciparum NF54
Structures can show the parent of a compound that is named as a salt.

{"compound": "COc1ccc(CN[C@H]2CC[C@@H](Nc3ccnc4cc(Cl)ccc34)CC2)cc1.Cl.Cl [Example 21]", "IC50, ng/mL": 5.1}
{"compound": "Clc1ccc2c(N[C@H]3CC[C@@H](NCCCc4ccccc4)CC3)ccnc2c1 [Example 20, dihydrochloride]", "IC50, ng/mL": 4.4}
{"compound": "CN(C)c1ccc(CN[C@H]2CC[C@@H](Nc3ccnc4cc(Cl)ccc34)CC2)cc1.Cl.Cl.Cl [Example 69]", "IC50, ng/mL": 3.7}
{"compound": "Cl.Cl.Clc1ccc2c(N[C@H]3CCCC[C@@H]3NCc3ccc(Cl)c(Cl)c3)ccnc2c1 [Example 63]", "IC50, ng/mL": 10.1}
{"compound": "COc1cc(CNC(C)(C)CNc2ccnc3cc(Cl)ccc23)ccc1O.Cl.Cl [Example 33]", "IC50, ng/mL": 6.3}
{"compound": "COc1cccc(CNC(C)(C)CNc2ccnc3cc(Cl)ccc23)c1OC.Cl.Cl [Example 36]", "IC50, ng/mL": 16.2}
{"compound": "CCN(CC)c1ccc(CNC(C)(C)CNc2ccnc3cc(Cl)ccc23)cc1.Cl.Cl.Cl [Example 46]", "IC50, ng/mL": 10.1}
{"compound": "COc1ccc(O)c(CN[C@H]2CC[C@@H](Nc3ccnc4cc(Cl)ccc34)CC2)c1.Cl.Cl [Example 80]", "IC50, ng/mL": 8.9}
{"compound": "COc1ccccc1CNC(C)(C)CNc1ccnc2cc(Cl)ccc12.Cl.Cl [Example 34]", "IC50, ng/mL": 7.2}
{"compound": "CC(C)(CNc1ccnc2cc(Cl)ccc12)NCc1cccc(Cl)c1Cl.Cl.Cl [Example 26]", "IC50, ng/mL": 26.3}
{"compound": "COc1ccc(CCN[C@H]2CC[C@H](Nc3ccnc4cc(Cl)ccc34)CC2)cc1.Cl.Cl [Example 92]", "IC50, ng/mL": 2.2}
{"compound": "COc1cc(CCN[C@H]2CC[C@H](Nc3ccnc4cc(Cl)ccc34)CC2)ccc1O.Cl.Cl [Example 104]", "IC50, ng/mL": 3.6}
{"compound": "COc1cccc(CCN[C@H]2CC[C@H](Nc3ccnc4cc(Cl)ccc34)CC2)c1OC.Cl.Cl [Example 105]", "IC50, ng/mL": 3.4}
{"compound": "COc1cc(OC)c(CN[C@H]2CC[C@@H](Nc3ccnc4cc(Cl)ccc34)CC2)c(OC)c1.Cl.Cl [Example 14]", "IC50, ng/mL": 4.8}
{"compound": "Cl.Cl.Clc1ccc2c(N[C@H]3CC[C@H](NCc4ccc(Cl)c(Cl)c4)CC3)ccnc2c1 [Example 102]", "IC50, ng/mL": 2.1}
{"compound": "CC(C)(CNc1ccnc2cc(Cl)ccc12)NCc1ccc(F)c(Cl)c1 [Example 6]", "IC50, ng/mL": 10.3}
